Target: BMP-12 (Homo sapiens)
Sequence (Q7Z4P5 322-450): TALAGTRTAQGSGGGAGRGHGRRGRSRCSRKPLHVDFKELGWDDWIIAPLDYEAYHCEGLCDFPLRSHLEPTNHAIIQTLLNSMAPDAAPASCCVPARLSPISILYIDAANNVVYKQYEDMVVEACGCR
Experiment: Filter-plate binding and elution of BMP-12 on peptide-coupled affinity resins
Details: loaded in condition 1: 50 mM Acetic Acid, 0.1 M NaCl, pH 2.9
No end group written: not given here.

- SUBSTANCE: "Ac-VAPPGYHAFYSHGEK [Peptide 745]"
  UNIT_OF_MEASURE: "%"
  Yield (BMP-12 recovered from resin): 100
- SUBSTANCE: "Ac-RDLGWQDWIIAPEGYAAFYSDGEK [Peptide 748]"
  UNIT_OF_MEASURE: "%"
  Yield (BMP-12 recovered from resin): 85
- SUBSTANCE: "Ac-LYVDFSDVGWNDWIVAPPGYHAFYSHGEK [Peptide 747]"
  UNIT_OF_MEASURE: "%"
  Yield (BMP-12 recovered from resin): 81
- SUBSTANCE: "Ac-LYV**SDVGWNDWIVK (Ac-LYVSDVGWNDWIVK; not fully specified (residue 3); printed as Ac-LYV**SDVGWNDWIVK) [Peptide 746]"
  UNIT_OF_MEASURE: "%"
  Yield (BMP-12 recovered from resin): 91
- SUBSTANCE: "Ac-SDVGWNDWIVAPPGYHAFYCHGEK [Peptide 750]"
  UNIT_OF_MEASURE: "%"
  Yield (BMP-12 recovered from resin): 100
- SUBSTANCE: "Ac-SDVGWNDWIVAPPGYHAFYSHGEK [Peptide 751]"
  UNIT_OF_MEASURE: "%"
  Yield (BMP-12 recovered from resin): 104
- SUBSTANCE: "Ac-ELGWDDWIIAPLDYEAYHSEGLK [Peptide 749]"
  UNIT_OF_MEASURE: "%"
  Yield (BMP-12 recovered from resin): 86
